These measurements were taken from patent US20150086555A1.

target: recombinant soluble homotrimeric HA, A/Egypt/3300-NAMRU3/08 H5N1 (Influenza A virus A/Egypt/3300-NAMRU3/2008(H5N1))
experiment.description: microarray, transfection SN IgG, trimeric HA
measurement.setup: remark: other sources report otherwise
Parameter: Trimeric HA Binding: RLU. Scope: all listed entries.
Numbers only; they are read as RLU.

Record TCN-550 (5096_F06) (antibody, V domains shown) VH: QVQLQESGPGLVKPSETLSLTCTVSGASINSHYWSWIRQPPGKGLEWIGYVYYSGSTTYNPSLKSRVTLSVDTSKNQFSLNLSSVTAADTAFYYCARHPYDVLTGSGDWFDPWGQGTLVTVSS VL: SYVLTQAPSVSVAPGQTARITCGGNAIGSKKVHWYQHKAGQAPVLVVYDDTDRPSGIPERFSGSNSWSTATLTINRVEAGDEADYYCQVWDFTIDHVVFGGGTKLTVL . Reported Trimeric HA Binding: RLU: 26800

Record TCN-553 (5261_C18) (antibody, V domains shown) VH: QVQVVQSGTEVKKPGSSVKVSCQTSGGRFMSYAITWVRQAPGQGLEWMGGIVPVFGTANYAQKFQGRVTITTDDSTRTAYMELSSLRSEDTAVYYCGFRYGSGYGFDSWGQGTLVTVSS VL: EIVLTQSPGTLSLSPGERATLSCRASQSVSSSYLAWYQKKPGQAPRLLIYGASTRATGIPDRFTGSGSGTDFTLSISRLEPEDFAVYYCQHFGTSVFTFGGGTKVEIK . Reported Trimeric HA Binding: RLU: 19500

Record TCN-504 (3251_K17) (antibody, V domains shown) VH: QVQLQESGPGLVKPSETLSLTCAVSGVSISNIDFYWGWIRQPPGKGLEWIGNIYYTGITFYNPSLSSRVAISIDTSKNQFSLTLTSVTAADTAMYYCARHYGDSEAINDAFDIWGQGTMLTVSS VL: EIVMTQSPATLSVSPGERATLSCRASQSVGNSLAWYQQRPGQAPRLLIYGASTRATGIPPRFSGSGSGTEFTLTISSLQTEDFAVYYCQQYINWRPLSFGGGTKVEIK . Reported Trimeric HA Binding: RLU: 20600
